# assay text: Pharmacokinetics in C57BL/6 mice
# Type: in vivo
# details: C57BL/6, plasma, iv; mouse, i.v. 0.5 mg/kg
measurement type: clearance (mL/min/kg)
Numbers only, in mL/min/kg.

Input: Form field: reported clearance of CN1C(=S)[C@@H](NC(=O)c2ncn(Cc3ccccc3)n2)COc2cccnc21 [WX009]
Output: 9.4

###

# assay text: Pharmacokinetic parameters in dogs
# Assay type: in vivo
# details: beagle, plasma; dog, po = 5 mpk vs iv = 1 mpk
measurement type: bioavailability (%)
Numbers only, in %.

Input: Form field: reported bioavailability of `CN1C(=S)[C@@H](NC(=O)c2nc3n(n2)[C@H](c2ccccc2)CC3)COc2cccnc21`
Output: 80.1

###

# assay text: Pharmacokinetic parameters in dogs
# Format: in vivo
# details: beagle, plasma, 1 mg/kg; dog, iv = 1 mpk
measurement type: AUC(0-t) (µM·h)
One number for each entry, in µM·h.

Input: Form field: reported AUC(0-t) of `CN1C(=S)[C@@H](NC(=O)c2nc3n(n2)[C@H](c2ccccc2)CC3)COc2cccnc21`
Output: 7.42

###

# assay text: Pharmacokinetics in C57BL/6 mice
# Type: in vivo
# details: C57BL/6, plasma, iv; mouse, i.v. 0.5 mg/kg; read-out: Vdss
# Experimental: Eight healthy adult C57BL/6 mice (6-9 weeks old, purchased from Shanghai Lingchang Biotechnology Co., Ltd.) were selected, and randomly divided into two groups, 4 mice in each group (n=2, cross blood sampling). […] The blood concentration was determined by LC-MS/MS method. Relevant pharmacokinetic parameters were calculated by WinNonlin™ Version 6.3 (Pharsight, Mountain View, CA) pharmacokinetic software using non-compartmental model and linear logarithmic trapezoidal method. […]
measurement type: Vd
Express the reported value numerically, then name its unit.

Input: Form field: reported Vd of CN1C(=S)[C@@H](NC(=O)c2ncn(Cc3ccccc3)n2)COc2cccnc21 [WX009]
Output: 1.1 L/kg

###

# Tested on: U937 cells
# assay text: U937 cell activity assay: TNFα/QVD-OPh-induced programmed cell necrosis (necroptosis)
# Assay type: cell-based, human
# details: Homo sapiens, U-937, 24 h, QVD-OPh 25 μM + TNF-α 100 ng/mL, CellTiter Glo
Rule: IC50 below 4 nM gives T. Equal to or above 4 nM gives F.

Input: Could you please tell me whether IC50 recorded for COc1ccccc1Cn1cnc(C(=O)N[C@H]2COc3cccnc3N(C)C2=S)n1 [WX027] is less than 4 nM?
Output: F

Input: Could you please tell me whether IC50 recorded for CN1C(=S)[C@@H](NC(=O)c2ncn(Cc3ccc(C(F)(F)F)cc3)n2)COc2cccnc21 [WX041] is less than 4 nM?
Output: F

Input: Could you please tell me whether IC50 recorded for Cc1cccc(Cn2cnc(C(=O)N[C@H]3COc4cccnc4N(C)C3=S)n2)c1 [WX033] is less than 4 nM?
Output: F

Input: Could you please tell me whether IC50 recorded for O=C(N[C@H]1CCc2cc(F)cc(F)c2NC1=S)c1nc(Cc2ccccc2)n[nH]1 [WX014] is less than 4 nM?
Output: T

Input: Could you please tell me whether IC50 recorded for CN1C(=S)[C@@H](NC(=O)c2nc(Cl)n(Cc3ccccc3)n2)COc2cccnc21 [WX011] is less than 4 nM?
Output: T

###

# assay text: Pharmacokinetics in C57BL/6 mice
# Assay type: in vivo
# details: C57BL/6, plasma, oral; mouse, p.o. 1 mg/kg vs i.v. 0.5 mg/kg
measurement type: bioavailability

Input: Form field: reported bioavailability of `CN1C(=S)[C@@H](NC(=O)c2ncn(Cc3ccccc3)n2)COc2cccnc21`
Output: 89.1%
